src = ChEMBL document CHEMBL3988442

system: Wolbachia pipientis; assay: Anti-Wolbachia Cell-Based Screen; assay type: functional; design: scale not given: in the data most compounds retested in dose-response had high values; settings: 5 µM
Out of some 48,000 compounds screened, about 13,000 (27%) showed an effect of 50% or more. This is one part of the list.
# Percent Effect listing for each entry below

{"columns": ["compound", "system-tested", "display-unit", "Percent Effect"],
 "data": [
  ["CCC[C@H]1CN(C(=O)c2cc(-c3cccs3)n(C)n2)C[C@@H]1N", "Wolbachia pipientis", "%", 106.1],
  ["CCC[C@@H]1CN(C(=O)c2cc(-c3cccs3)n(C)n2)C[C@H]1N(C)C", "Wolbachia pipientis", "%", 95.7],
  ["CN1CCN(C(=O)c2ccc(=O)n(C)c2)Cc2ccccc21", "Wolbachia pipientis", "%", -3.616],
  ["CCC[C@@H]1CN(C(=O)c2cc(-c3cccs3)n(C)n2)C[C@H]1NS(C)(=O)=O", "Wolbachia pipientis", "%", 96.45],
  ["Cc1nc2c(c(C)c1CC(=O)NCc1ccc(F)cc1)c(=O)[nH]n2C", "Wolbachia pipientis", "%", 91.6],
  ["Cc1ccc(C(=O)N2Cc3ccccc3C2)cc1N1CCNC1=O", "Wolbachia pipientis", "%", -8.111],
  ["Cc1nc2c(c(C)c1CC(=O)NCc1cccc(C#N)c1)c(=O)[nH]n2C", "Wolbachia pipientis", "%", 1.091],
  ["Cc1cc(C)cc(NC(=O)Cc2c(C)nc3c(c2C)c(=O)[nH]n3C)c1", "Wolbachia pipientis", "%", 3.943],
  ["CC(=O)c1cccc(-c2c[nH]c(C)n2)c1", "Wolbachia pipientis", "%", -8.634],
  ["CCc1nc2n(n1)CCCC2NC(=O)Nc1ccc(F)cc1C#N (configuration not stated)", "Wolbachia pipientis", "%", -29.22],
  ["CN1CCN(C(=O)c2cccs2)Cc2ccccc21", "Wolbachia pipientis", "%", -12.17],
  ["CC1=Nc2c(c(=O)[nH]n2C2CCCC2)C(c2cccc(O)c2)S1 (configuration not stated)", "Wolbachia pipientis", "%", 4.051],
  ["Cc1nc2c(C(=O)N[C@H]3C[C@H]4CN(C)CCN4C3)cccc2[nH]1", "Wolbachia pipientis", "%", 8.866],
  ["O=C1CC(C2CCCCC2)c2c(n(C3CCCC3)[nH]c2=O)N1 (configuration not stated)", "Wolbachia pipientis", "%", -0.7877],
  ["COc1ccc(C2SC(C)=Nc3c2c(=O)[nH]n3C2CCCCC2)cc1O (configuration not stated)", "Wolbachia pipientis", "%", 9.619],
  ["CC1(C)CC1(C(=O)N1CC(c2cccnc2)C1)c1ccc(F)cc1 (configuration not stated)", "Wolbachia pipientis", "%", -9.092],
  ["Cc1ccc(CNC(=O)Cc2c(C)nc3c(c2C)c(=O)[nH]n3C)cc1", "Wolbachia pipientis", "%", 114.9],
  ["CCC[C@@H]1CN(Cc2cnc(-c3cccs3)nc2)C[C@H]1C(=O)O", "Wolbachia pipientis", "%", -4.575],
  ["CC1=Nc2c(c(=O)[nH]n2C2CCCC2)C(c2ccc(C(=O)O)cc2)S1 (configuration not stated)", "Wolbachia pipientis", "%", 117.5],
  ["CCC[C@H]1CN(CCS(C)(=O)=O)C[C@@H]1NC(=O)c1ccn(C)n1", "Wolbachia pipientis", "%", -3.531],
  ["CC(C)c1nc(C(=O)N2C[C@H](C(C)C)[C@@H](N)C2)cs1", "Wolbachia pipientis", "%", -1.889],
  ["Cc1cc(=O)c(C(=O)N2CCN(C)c3ccccc3C2)c[nH]1", "Wolbachia pipientis", "%", 106.1]
]}

* * *

system: Wolbachia pipientis; test: Anti-Wolbachia Cell-Based Screen; type: functional; design: scale not given: in the data most compounds retested in dose-response had high values; settings: 5 µM
Screen size: about 48,000 compounds; about 13,000 (27%) showed an effect of 50% or more. The list shows a part of the results.

{"columns": ["molecule", "display-unit", "Percent Effect"],
 "data": [
  ["CN1CCN(C(=O)[C@H]2C[C@H]3[C@H](CCN3Cc3nccs3)O2)CC1", "%", 108.2],
  ["O=C1NCCCC12CCN(Cc1ccc(SC3CCCCC3)o1)C2 (configuration not stated)", "%", 4.336],
  ["CC(C)c1noc(CN2CCN(C(=O)c3ccncc3F)CC2)n1", "%", 113.2],
  ["COCCNC(=O)NCCc1cccc(OC)c1O", "%", -1.079],
  ["Cc1nn(Cc2ccc(C(=O)NCCCN3CCCC3=O)o2)c(C)c1Br", "%", 118.7],
  ["COc1ccc(CNC(=O)NCc2c(C)cc(C)[nH]c2=O)cc1", "%", -8.384],
  ["CCCNc1ncc(CN2CCC3(CC2)CNC(=O)C3)cn1", "%", -5.134],
  ["CC(C)CN1CCn2c(COCc3cccnc3)nnc2C1.O=C(O)C(F)(F)F.O=C(O)C(F)(F)F", "%", -7.115],
  ["Cn1cc(C(=O)NCCCN2CCCCCC2=O)c(-c2cccnc2)n1", "%", -24.83],
  ["CCC1CCC(NCCN2CCOCC2)CC1 (configuration not stated)", "%", -1.764],
  ["COCCNC(=O)NCCn1nc(C(F)(F)F)n(C)c1=O", "%", 0.0676],
  ["O=C(NCCN1CCCCCC1=O)c1n[nH]c(=O)c2ccccc12", "%", -2.472],
  ["Cc1nnc2n1CCN(CC(=O)NC(C)c1ccc3ccccc3c1)C2 (configuration not stated)", "%", -2.487],
  ["COCCNCc1cc2ccc(C)c(C)c2[nH]c1=O", "%", 110.6],
  ["CC(C)N1CCn2c(nc3cc(C(N)=O)ccc32)C1", "%", 42.97],
  ["CC(NC(=O)Cn1cc(C(N)=O)c(-c2ccccc2)n1)C1CC1 (configuration not stated)", "%", 6.248],
  ["Cc1ccc(Sc2ccc(CN3CCC4(CCCNC4=O)C3)o2)cc1 (configuration not stated)", "%", 5.94],
  ["Cc1ccc(CN(C)C(=O)CN2CCCC2Cn2cccn2)o1 (configuration not stated)", "%", 15.96],
  ["CN(C)Cc1nc2c(o1)CN(C(=O)c1ccncc1F)C2", "%", -6.758],
  ["CCCc1cc(C(=O)N2CCC3(CCCNC3=O)C2)cs1 (configuration not stated)", "%", 9.333],
  ["Cc1ccc(-c2nc(CN3CCOC(Cn4cccn4)C3)cs2)o1 (configuration not stated)", "%", -10.9],
  ["CN(Cc1ccco1)C(=O)CN1CCOC(Cn2cccn2)C1 (configuration not stated)", "%", 126.4],
  ["Cc1ccc(C(=O)NCCCN2CCOCC2)c(Cl)c1", "%", -7.154],
  ["CCOc1cc2c(cc1CN1CCC3(CCCNC3=O)C1)CCC2 (configuration not stated)", "%", 106.5],
  ["Cc1ccc(CN(C)C(=O)CN2CCCCC2Cn2cncn2)o1 (configuration not stated)", "%", -8.08],
  ["COc1cccc2c1OCC(C(=O)N1CCN(C3CCSCC3)CC1)C2 (configuration not stated)", "%", -19.41],
  ["CN(C)C(=O)CCC(=O)NCc1cccnc1-n1cnc2ccccc21", "%", -4.725],
  ["CC(C)c1noc(CN2CCN(C(=O)c3ccccc3F)CC2)n1", "%", 4.935],
  ["Cc1nn(Cc2ccc(C(=O)NCCCN3CCCC3=O)o2)c(C)c1Cl", "%", 113],
  ["O=C([C@H]1CN(Cc2nccs2)C[C@H]2OCC[C@@H]12)N1CCCC1", "%", -16.26],
  ["CN1CCN(C(=O)[C@H]2CC[C@@H]3[C@@H](CCN3Cc3nccs3)O2)CC1", "%", 100.9],
  ["CC(C)NC(=O)c1ccc2c(c1)nc1n2CCN(C(C)C)C1", "%", -1.576],
  ["CC(=O)N1CCc2c(nc(-c3ccccn3)nc2N(C)CC(O)CO)C1 (configuration not stated)", "%", 1.269],
  ["CN(Cc1ccco1)C(=O)CN1CCOC(Cn2cncn2)C1 (configuration not stated)", "%", 96.26],
  ["Cc1ccc2cc(CNCCCO)c(=O)[nH]c2c1", "%", -12.61],
  ["CCc1nnc2n1CCN(Cc1ccc(C(=O)N3CCCC3)cc1)C2", "%", 0.2623],
  ["Cc1cccc2cc(CN3CCC(N4CCCC4)CC3)c(=O)[nH]c12", "%", -6.915],
  ["Cc1ccc(CN(C)C(=O)CN2CCOC(Cn3cccn3)C2)o1 (configuration not stated)", "%", 114.2],
  ["CC(C)c1noc(CN2CCN(C(=O)c3cc(Cl)ccc3F)CC2)n1", "%", 113.5],
  ["CCOc1cc2c(cc1CN1CCC3(CC1)CNC(=O)C3)CCC2", "%", 89],
  ["O=C(Nc1ccc(-c2cscn2)cc1)C1CCCN(Cc2ccon2)C1 (configuration not stated)", "%", -5.748],
  ["CCOc1cc(Cl)c(CN2CCC3(CCCNC3=O)C2)cc1OC (configuration not stated)", "%", 104.3],
  ["CCCn1nc(C)c(CNC(=O)C2COc3ccc(OC)cc3C2)c1C (configuration not stated)", "%", -13.51],
  ["CCn1nc(C)c(CCNC(=O)c2coc(CN3CCOCC3)c2)c1C", "%", -5.303],
  ["CC(C)(O)CN1CCN(C(=O)c2cccnc2O)CC1", "%", -5.606],
  ["CN(Cc1ccco1)C(=O)CN1CCCC1Cn1cccn1 (configuration not stated)", "%", -1.962],
  ["CC(C)n1ccnc1CN1CCCN(C(=O)c2cccnc2O)CC1", "%", 3.954]
]}
